target: PPAR-delta ligand binding domain fused to GAL4 DNA binding domain (UniProt Q03181); test: Transient transfection transactivation assay in CV-1 cells, PPAR-delta (GAL4 chimera, luciferase reporter); settings: 20-24 hours
pEC50: −log10 of the molar value.
result-type: pEC50

pEC50 measured on C[C@@H]1CN(Cc2ccc(C(F)(F)F)c(F)c2)C[C@H](C)N1S(=O)(=O)c1cccc2c1CC(C(=O)O)C2 (stereo partly shown) [Example 1] = > 5.30

pEC50 measured on C[C@@H]1CN(S(=O)(=O)c2ccc(OC(F)(F)F)cc2)C[C@H](C)N1S(=O)(=O)c1cccc2c1CC(C(=O)O)C2 (stereo partly shown) [Example 11] = > 5.30

pEC50 measured on O=C(O)C1Cc2cccc(S(=O)(=O)N3CCN(C(=O)Cc4ccc(C(F)(F)F)cc4)CC3)c2C1 (stereo not shown) [Example 20] = 4.00 to 5.30

pEC50 measured on O=C(O)C1Cc2cccc(S(=O)(=O)N3CCN(CCCc4ccc(OC(F)(F)F)cc4)CC3)c2C1 (stereo not shown) [Example 22] = > 5.30
